Exercise: for every item that follows, state its recorded pIC50.
# assay.target: ROCK2 (Homo sapiens (Human), UniProt O75116)
# Sequence (O75116 whole entry, species assumed): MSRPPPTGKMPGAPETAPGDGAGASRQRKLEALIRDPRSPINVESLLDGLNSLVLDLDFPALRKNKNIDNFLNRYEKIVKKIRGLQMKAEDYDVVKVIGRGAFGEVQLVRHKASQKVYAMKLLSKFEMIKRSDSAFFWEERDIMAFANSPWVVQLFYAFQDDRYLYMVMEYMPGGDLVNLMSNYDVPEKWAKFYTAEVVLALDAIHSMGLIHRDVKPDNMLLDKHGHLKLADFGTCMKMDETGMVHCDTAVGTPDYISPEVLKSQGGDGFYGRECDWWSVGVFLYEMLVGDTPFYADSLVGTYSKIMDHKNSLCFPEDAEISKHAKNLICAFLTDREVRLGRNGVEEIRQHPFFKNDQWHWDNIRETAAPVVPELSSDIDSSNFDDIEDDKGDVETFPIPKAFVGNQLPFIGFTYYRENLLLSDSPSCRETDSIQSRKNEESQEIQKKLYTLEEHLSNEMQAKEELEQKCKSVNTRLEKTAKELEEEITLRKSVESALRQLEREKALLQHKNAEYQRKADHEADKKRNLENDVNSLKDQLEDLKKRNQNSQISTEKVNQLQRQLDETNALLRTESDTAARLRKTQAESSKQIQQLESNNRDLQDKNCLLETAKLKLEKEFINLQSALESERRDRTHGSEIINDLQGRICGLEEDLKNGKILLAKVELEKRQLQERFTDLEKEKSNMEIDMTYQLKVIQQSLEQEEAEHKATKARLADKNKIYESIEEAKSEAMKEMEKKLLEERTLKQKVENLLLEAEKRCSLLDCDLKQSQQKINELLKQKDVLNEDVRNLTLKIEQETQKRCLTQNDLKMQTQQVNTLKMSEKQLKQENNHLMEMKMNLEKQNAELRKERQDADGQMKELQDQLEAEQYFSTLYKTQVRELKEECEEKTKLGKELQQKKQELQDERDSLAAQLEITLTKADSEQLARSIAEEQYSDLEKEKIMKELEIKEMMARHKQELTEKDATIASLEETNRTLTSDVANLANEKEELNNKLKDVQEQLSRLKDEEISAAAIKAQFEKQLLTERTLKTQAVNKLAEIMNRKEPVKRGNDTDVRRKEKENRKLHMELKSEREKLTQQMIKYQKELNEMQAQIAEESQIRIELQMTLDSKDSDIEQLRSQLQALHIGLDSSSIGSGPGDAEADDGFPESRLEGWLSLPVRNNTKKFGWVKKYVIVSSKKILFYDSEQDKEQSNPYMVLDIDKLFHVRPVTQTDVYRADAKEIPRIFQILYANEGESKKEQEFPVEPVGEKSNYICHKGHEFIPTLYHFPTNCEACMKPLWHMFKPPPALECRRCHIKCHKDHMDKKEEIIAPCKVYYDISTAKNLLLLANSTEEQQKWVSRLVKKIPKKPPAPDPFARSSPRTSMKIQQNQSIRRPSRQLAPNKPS
Numbers only, as −log10 of the molar value.

Solved cases (5 shown):
INSERT INTO assay_data (molecule, measurement) VALUES
  ('CC(C)(O)COc1ccc2c(C(=O)N[C@H]3C[C@]4(C3)C[C@H](Oc3nn(-c5ccccc5C#N)cc3C(N)=O)C4)cnn2c1C1CC1 (some centres unmarked)', 7.13),
  ('Cc1nc(NCC(C)C)sc1C(=O)N[C@H]1C[C@]2(C1)C[C@H](Oc1nc3c(cc1C(N)=O)COCC3)C2 (some centres unmarked)', 6.95),
  ('CC(C)(O)COc1ccc2c(C(=O)N[C@H]3C[C@]4(C3)C[C@H](Oc3nn5c(-c6ccccc6)cccc5c3C(N)=O)C4)nn(C(F)F)c2c1 (some centres unmarked)', 6.84),
  ('Cc1c(C(=O)N[C@H]2C[C@]3(C2)C[C@H](Oc2nn(C4CC4)cc2C(N)=O)C3)cnn1-c1ccccc1 (some centres unmarked)', 6.85),
  ('CC(C)CC1NC(=O)N([C@H]2C[C@@]3(C[C@H](Oc4nc(C5CC5)sc4C(N)=O)C3)C2)C1=O (single isomer, unassigned) [Example 110]', 7.91);

Hey, can you go through the list below and give me pIC50 for every item?
1. COc1nc(O[C@H]2C[C@@]3(C[C@H](NC(=O)c4cnn5cc(OCC(F)(F)F)ccc45)C3)C2)c(C(N)=O)s1 (some centres unmarked)
2. NC(=O)c1cn(C(F)F)nc1O[C@H]1C[C@@]2(C[C@H](NC(=O)c3cnn4cc(OCC(O)(C(F)(F)F)C(F)(F)F)ccc34)C2)C1 (some centres unmarked)
3. Cc1c(C(=O)N[C@H]2C[C@]3(C2)C[C@H](Oc2nn4ccccc4c2C(N)=O)C3)cnn1-c1ccc(C#N)cc1 (some centres unmarked)
4. CC(C)CC1NC(=O)N([C@H]2CC3(C[C@H](Oc4nn5ccccc5c4C(N)=O)C3)C2)C1=O (some centres unmarked)
5. CC(C)(O)COc1ccc2c(C(=O)N[C@H]3C[C@]4(C3)C[C@H](Oc3nn(-c5ccccc5)cc3C(N)=O)C4)nn(C(F)F)c2c1 (some centres unmarked)

1: 7.23; 2: 7.47; 3: 6.19; 4: 6.68; 5: 7.86

Any idea what its pIC50 is? The molecule is COc1cccc2c(C(N)=O)c(O[C@H]3C[C@@]4(C[C@H](NC(=O)c5nn(C(F)F)c6cc(OCC(C)(C)O)ccc56)C4)C3)nn12 (some centres unmarked)
7.66
